Target: T1, cyno GITR-CHO (cynomolgus monkey)
T1 construct: expressed on the surface of CHO cells, construct not described; also called cynomolgus GITR expressed on the surface of CHO cells
Experiment: flow cytometry on cyno GITR-CHO cells

{"columns": ["binder", "EC50 (read off the curve)"],
 "data": [
  ["hzC06v1.3 (VHH) VHH: EVQLLESGGGEVQPGGSLRLSCAASGSVFSIDAMGWYRQAPGKQRELVSALSGISSATYAESVKGRFTISRDNAKNTLYLQMSSLRAEDTAVYYCYADVSTGWGRDAHGYWGQGTLVTV", "~4 nM"],
  ["hzC06v2.4 (VHH) VHH: EVQLLESGGGEVQPGGSLRLSCAASGSVFSIDAMGWYRQAPGQQRELVAVLSGISSATYAESVKGRFTISRDNAKNTLYLQMSSLRAEDTAVYYCYADVSTGWGRDAHGYWGQGTLVTV", "~4 nM"],
  ["hzC06v1.4 (VHH) VHH: EVQLLESGGGEVQPGGSLRLSCAASGSVFSIDAMGWYRQAPGQQRELVSALSGISSATYAESVKGRFTISRDNAKNTLYLQMSSLRAEDTAVYYCYADVSTGWGRDAHGYWGQGTLVTV", "~4 nM"]
]}
